Target: T1, recombinant human regenerating islet-derived protein 1α (REG1A) (human, UniProt P05451 23-166, limits assumed)
T1 construct: also called recombinant human REG1A; recombinant REG1A
T1 sequence (looked up): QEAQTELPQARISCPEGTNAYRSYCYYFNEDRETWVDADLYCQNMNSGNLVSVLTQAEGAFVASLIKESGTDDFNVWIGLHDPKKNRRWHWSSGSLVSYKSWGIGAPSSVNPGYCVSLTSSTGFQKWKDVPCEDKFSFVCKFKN
Assay: sandwich ELISA; capture 4H8F1; REG1A 0 ng/mL (blank)
measured_endpoint: OD value (OD)
# unit: OD | format: bare number

Consider the following illustrative entries.
[[record]]
binder = "antibody 21B11D2 (antibody, mouse IgG2b, kappa, V domains shown, Mouse monoclonal from hybridoma, stated mouse IgG1/Kappa; Used unlabelled as capture and biotin-labelled as detection antibody; also called 21B11D2-biotin) VH: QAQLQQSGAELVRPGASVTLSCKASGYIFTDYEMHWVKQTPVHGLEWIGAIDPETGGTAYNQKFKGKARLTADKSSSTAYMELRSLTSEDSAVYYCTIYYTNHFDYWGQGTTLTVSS VL: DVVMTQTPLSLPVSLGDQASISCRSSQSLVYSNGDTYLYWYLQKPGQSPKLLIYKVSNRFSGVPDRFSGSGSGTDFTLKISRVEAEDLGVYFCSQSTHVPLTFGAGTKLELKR"
unit_label = "OD"
observed_measurement = 0.069

[[record]]
binder = "antibody 12F12A10 (antibody, V domains shown, Mouse monoclonal from hybridoma, stated mouse IgG1/Kappa; also called 12F12A10-biotin; Antibody 2) VH: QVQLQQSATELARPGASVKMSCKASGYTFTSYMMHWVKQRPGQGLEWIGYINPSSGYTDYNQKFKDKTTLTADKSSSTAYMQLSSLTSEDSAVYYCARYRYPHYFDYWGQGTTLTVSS VL: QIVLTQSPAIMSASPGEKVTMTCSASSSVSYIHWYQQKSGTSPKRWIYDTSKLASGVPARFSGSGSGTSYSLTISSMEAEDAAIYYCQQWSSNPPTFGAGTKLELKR"
unit_label = "OD"
observed_measurement = 0.088

[[record]]
binder = "antibody 11D11B11 (antibody, mouse IgG2a, kappa, V domains shown, Mouse monoclonal from hybridoma, stated mouse IgG1/Kappa; Used unlabelled as capture and biotin-labelled as detection antibody; also called 11D11B11-biotin) VH: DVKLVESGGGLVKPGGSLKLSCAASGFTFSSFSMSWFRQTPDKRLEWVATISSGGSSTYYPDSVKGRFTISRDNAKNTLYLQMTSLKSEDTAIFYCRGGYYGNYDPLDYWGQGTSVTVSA VL: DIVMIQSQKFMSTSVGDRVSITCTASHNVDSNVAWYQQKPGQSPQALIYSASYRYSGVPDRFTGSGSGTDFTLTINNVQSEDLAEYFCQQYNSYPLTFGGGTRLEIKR"
unit_label = "OD"
observed_measurement = 0.21


Field: next binder
// OD value lookup, key: antibody 4H8F1 (antibody, V domains shown, Mouse monoclonal from hybridoma, stated mouse IgG1/Kappa; also called 4H8F1-biotin; Antibody 1) VH: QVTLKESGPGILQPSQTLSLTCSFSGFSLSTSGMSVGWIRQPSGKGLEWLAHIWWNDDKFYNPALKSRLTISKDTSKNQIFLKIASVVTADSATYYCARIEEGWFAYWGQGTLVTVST VL: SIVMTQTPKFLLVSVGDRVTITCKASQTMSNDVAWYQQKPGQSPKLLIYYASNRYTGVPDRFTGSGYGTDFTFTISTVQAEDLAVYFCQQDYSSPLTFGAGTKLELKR
0.074
